Known IC50 of a selection of compounds
assayedTarget: ALK mutant R1275Q (Homo sapiens, UniProt Q9UM73, R1275Q)
Construct: purchased Carna Biosciences (Chuo-ku, Kobe, Japan)
Sequence (Q9UM73 19-1620 R1275Q): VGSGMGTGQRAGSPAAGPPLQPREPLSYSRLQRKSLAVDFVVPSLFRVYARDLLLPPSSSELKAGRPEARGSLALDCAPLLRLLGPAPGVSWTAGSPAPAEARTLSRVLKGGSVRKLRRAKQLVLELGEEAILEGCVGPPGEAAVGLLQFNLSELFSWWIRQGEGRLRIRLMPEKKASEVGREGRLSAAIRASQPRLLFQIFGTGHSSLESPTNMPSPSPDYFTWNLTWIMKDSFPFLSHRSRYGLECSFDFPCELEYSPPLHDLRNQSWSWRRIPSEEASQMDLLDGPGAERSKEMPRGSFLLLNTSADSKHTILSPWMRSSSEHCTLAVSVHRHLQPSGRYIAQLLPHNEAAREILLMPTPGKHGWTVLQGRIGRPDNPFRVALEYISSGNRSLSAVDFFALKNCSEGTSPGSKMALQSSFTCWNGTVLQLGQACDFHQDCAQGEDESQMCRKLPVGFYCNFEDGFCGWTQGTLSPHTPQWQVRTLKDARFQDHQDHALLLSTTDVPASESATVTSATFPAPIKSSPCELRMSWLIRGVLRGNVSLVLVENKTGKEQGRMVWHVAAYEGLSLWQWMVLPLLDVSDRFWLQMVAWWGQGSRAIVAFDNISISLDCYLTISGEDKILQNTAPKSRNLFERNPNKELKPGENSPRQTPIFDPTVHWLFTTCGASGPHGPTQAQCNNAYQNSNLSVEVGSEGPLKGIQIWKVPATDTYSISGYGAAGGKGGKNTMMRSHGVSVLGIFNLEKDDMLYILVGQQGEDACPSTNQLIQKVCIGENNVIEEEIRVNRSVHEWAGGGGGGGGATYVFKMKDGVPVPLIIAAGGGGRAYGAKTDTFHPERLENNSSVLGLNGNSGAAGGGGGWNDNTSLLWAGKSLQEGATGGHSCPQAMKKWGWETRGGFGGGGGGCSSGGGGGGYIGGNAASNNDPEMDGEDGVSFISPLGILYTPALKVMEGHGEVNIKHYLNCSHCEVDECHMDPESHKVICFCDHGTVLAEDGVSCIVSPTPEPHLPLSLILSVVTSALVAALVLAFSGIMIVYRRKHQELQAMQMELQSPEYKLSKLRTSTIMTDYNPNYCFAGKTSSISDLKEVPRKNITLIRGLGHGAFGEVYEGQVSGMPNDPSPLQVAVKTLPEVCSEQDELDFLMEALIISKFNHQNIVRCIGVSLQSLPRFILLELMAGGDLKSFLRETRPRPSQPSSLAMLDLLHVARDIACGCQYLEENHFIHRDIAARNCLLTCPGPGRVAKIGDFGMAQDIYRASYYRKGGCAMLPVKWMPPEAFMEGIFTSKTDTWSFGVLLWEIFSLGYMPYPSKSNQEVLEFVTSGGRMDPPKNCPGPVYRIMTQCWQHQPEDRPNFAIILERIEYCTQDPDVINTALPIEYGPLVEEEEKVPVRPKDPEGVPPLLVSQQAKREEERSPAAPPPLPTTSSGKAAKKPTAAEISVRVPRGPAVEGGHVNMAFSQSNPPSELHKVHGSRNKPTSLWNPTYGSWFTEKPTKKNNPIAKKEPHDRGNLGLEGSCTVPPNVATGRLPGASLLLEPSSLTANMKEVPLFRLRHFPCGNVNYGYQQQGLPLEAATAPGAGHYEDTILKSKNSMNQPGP
experimentDescription: Off-chip mobility shift assay (Carna Biosciences), ALK R1275Q
Assay type: biochemical
testConditions: footnote #: R1275Q; read-out: IC50 ALK Kinase (# mutant R1275Q)

| givenSmiles | testResult |
| --- | --- |
| COc1cc(P(C)(C)=O)ccc1-c1cnc(N)c(O[C@H](C)c2c(Cl)ccc(F)c2Cl)c1 | < 100 nM |

Q: Look up IC50: C[C@@H](Oc1cc(-c2ccc(P(C)(C)=O)cc2F)cnc1N)c1c(Cl)ccc(F)c1Cl
Ans: < 100 nM

The reported measurements were obtained from patent US8951993B2.
